- tested.target: human ERK-2 (Mitogen Activated Kinase 1) (Homo sapiens, UniProt P28482)
- Construct: n-terminal 6-His fusion protein in E. coli and corresponding to aa 8-360; 6-His (N); made in house; host or cells: E. coli
- Sequence (P28482 8-360): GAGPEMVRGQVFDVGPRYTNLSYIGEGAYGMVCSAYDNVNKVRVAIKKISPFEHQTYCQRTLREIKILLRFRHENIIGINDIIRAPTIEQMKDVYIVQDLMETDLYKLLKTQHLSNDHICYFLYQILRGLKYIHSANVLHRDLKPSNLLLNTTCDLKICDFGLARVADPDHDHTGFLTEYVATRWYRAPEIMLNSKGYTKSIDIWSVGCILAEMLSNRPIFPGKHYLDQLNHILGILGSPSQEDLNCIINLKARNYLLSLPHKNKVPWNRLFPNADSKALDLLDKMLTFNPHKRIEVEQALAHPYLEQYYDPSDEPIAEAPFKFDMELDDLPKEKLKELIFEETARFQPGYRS
- test.description: ERK-2 Enzymatic Assay
- Assay type: biochemical
- protocol.conditions: 5 nM ERK-2 enzyme, 25 μM ATP (observed Km), Omnia peptide S/T17; single assay or mean of multiple assays; read-out: Biological Example 1 IC50
Known IC50 of a selection of molecules
readout.kind: IC50

Cc1cccc(Cn2nnc3cc(-c4ccnc(Nc5ccnn5C)n4)ccc32)n1 :: 11.4 nM
COc1ccc(Cn2nnc3cc(-c4ccnc(N[C@@H]5CCOC[C@H]5F)n4)ccc32)cc1F :: 2.6 nM
Cn1nccc1Nc1nccc(-c2ccc3c(c2)nnn3CC2CCC(F)(F)CC2)n1 :: 4 nM
Cn1nccc1Nc1nccc(-c2ccc3c(c2)nnn3CC2CNC2)n1 :: 53.2 nM
COc1ccc(Cn2nnc3cc(-c4ccnc(Nc5ccnn5C)n4)cnc32)cc1F :: 2.5 nM
COc1ncc(F)cc1N1CC[C@H](n2nnc3cc(-c4ccnc(Nc5ccnn5C)n4)ccc32)C1 :: 511 nM
CCOCCCn1nnc2cc(-c3ccnc(Nc4ccnn4C)n3)ccc21 :: 5.7 nM
COc1ccc(Cn2nnc3cc(-c4ccnc(Nc5cn(C)nc5C)n4)ccc32)cc1F :: 2.9 nM

----------
Known pIC50 of a selection of compounds
- tested.target: human ERK-2 (Mitogen Activated Kinase 1) (Homo sapiens, UniProt P28482)
- Construct: n-terminal 6-His fusion protein in E. coli and corresponding to aa 8-360; 6-His (N); made in house; host or cells: E. coli
- test.description: ERK-2 Enzymatic Assay
- Type: biochemical
- protocol.conditions: 5 nM ERK-2 enzyme, 25 μM ATP (observed Km), Omnia peptide S/T17; single assay or mean of multiple assays; read-out: Biological Example 1 IC50
pIC50: −log10 of the molar value.
readout.kind: pIC50

Cn1nccc1Nc1nccc(-c2ccc3c(c2)nnn3Cc2cccc(F)c2F)n1 :: 9.05
Cn1nccc1Nc1nccc(-c2ccc3c(c2)nnn3CCn2cc(Cl)cn2)n1 :: 8.72
COc1ccc([C@@H](c2cnn(C)c2)n2nnc3cc(-c4ccnc(Nc5ccnn5C)n4)ccc32)cc1F :: 8.77
COc1ccc([C@@H](c2nccn2C)n2nnc3cc(-c4ccnc(Nc5ccnn5C)n4)ccc32)cc1F :: 8.70
Cn1nccc1Nc1cc(-c2ccc3c(c2)nnn3Cc2ccc(Cl)cc2)ccn1 :: 8.29
Cc1ncccc1Cn1nnc2cc(-c3ccnc(Nc4ccnn4C)c3)ccc21 :: 8.11
CN1CC(n2nnc3cc(-c4ccnc(Nc5ccnn5C)n4)ccc32)C1 :: 8.55
Cn1nccc1Nc1nccc(-c2ccc3c(c2)nnn3CCn2cccn2)n1 :: 8.66

----------
- Tested on: PMA-stimulated P90RSK(Ser380) phosphorylation in HepG2 cells
- test.description: Cellular P90RSK(Ser380) Phosphorylation Assay
- Assay type: cell-based
- protocol.conditions: Homo sapiens, 1.5 hours compound incubation, PMA 100 ng/mL 30 minutes, pP90RSK(Ser380) signal normalized to GAPDH, single assay or mean of multiple assays, read-out: Biological Example 2 IC50
- Procedure: Inhibition of PMA-stimulated P90RSK(Ser380) phosphorylation was determined by the following in vitro cellular mechanistic assay, which comprises incubating cells with a compound for 1.5 hours and quantifying fluorescent pP90RSK(Ser380) signal on fixed cells and normalizing to GAPDH signal. HepG2 cells were obtained from ATCC and grown in DMEM supplemented with 10% fetal bovine serum. Cells were plated in 96-well plates at 35,000 cells/well and allowed to attach overnight at 37° C./5% CO2. […]
Known IC50 of a selection of molecules
readout.kind: IC50 (nM)

COc1ccc(Cn2nnc3cc(-c4ccnc(Nc5ccnn5C)n4)cnc32)cc1F :: 16.8
COc1ccc(Cn2nnc3cc(-c4ccnc(N[C@@H]5CCOC[C@H]5F)n4)ccc32)cc1F :: 58.2
CN1CC(n2nnc3cc(-c4ccnc(Nc5ccnn5C)n4)ccc32)C1 :: 21.8
CCOCCCn1nnc2cc(-c3ccnc(Nc4ccnn4C)n3)ccc21 :: 68.5
COc1ccc([C@@H](c2cnn(C)c2)n2nnc3cc(-c4ccnc(Nc5ccnn5C)n4)ccc32)cc1F :: 79.1
Cc1ncccc1Cn1nnc2cc(-c3ccnc(Nc4ccnn4C)c3)ccc21 :: 781
Cn1nccc1Nc1nccc(-c2ccc3c(c2)nnn3CCn2cc(Cl)cn2)n1 :: 3.2
Cc1cccc(Cn2nnc3cc(-c4ccnc(Nc5ccnn5C)n4)ccc32)n1 :: 437
Cn1nccc1Nc1nccc(-c2ccc3c(c2)nnn3CCn2cccn2)n1 :: 19.6
Cn1nccc1Nc1nccc(-c2ccc3c(c2)nnn3Cc2cccc(F)c2F)n1 :: 22.7
Cn1nccc1Nc1nccc(-c2ccc3c(c2)nnn3CC2CNC2)n1 :: 1400
Cn1nccc1Nc1cc(-c2ccc3c(c2)nnn3Cc2ccc(Cl)cc2)ccn1 :: 184
Cn1nccc1Nc1nccc(-c2ccc3c(c2)nnn3CC2CCC(F)(F)CC2)n1 :: 63.3
COc1ccc(Cn2nnc3cc(-c4ccnc(Nc5cn(C)nc5C)n4)ccc32)cc1F :: 56.8
COc1ccc([C@@H](c2nccn2C)n2nnc3cc(-c4ccnc(Nc5ccnn5C)n4)ccc32)cc1F :: 3.7
